test system: SUP-T1 (T-Lymphoblastic Leukemia); experiment: combination Emax (second highest fraction inhibited in the dose matrix, 72 h); higher = more inhibition; extreme values may be limits of the assay
measurement type: combination Emax

# compound, measurement type, experimental value
records = [
    ("Cc1c2c(nn1C)CSCc1cc(n(C)n1)CSc1cc(c3ccccc3c1)OCCCc1c(C(=O)O)n(C)c3c-2c(Cl)ccc13 [AZD5991] + Cc1cc2ncnn2cc1Nc1ncc2c(n1)n(C1CCOCC1)c(=O)n2C [AZD7648] (first compound max 1 µM, 7x7, partner max 10 µM)", "combination Emax", 0.466),
    ("CN(CCO)CC[C@H](CSc1ccccc1)Nc1ccc(S(=O)(=O)NC(=O)c2ccc(N3CCC([C@@H](O)c4ccccc4-c4ccc(Cl)cc4)CC3)cc2)cc1S(=O)(=O)C(F)(F)F [AZD4320] + Cn1cnc2c(F)c(Nc3ccc(Br)cc3Cl)c(C(=O)NOCCO)cc21 [Selumetinib] (first compound max 1 µM, 7x7, partner max 3 µM)", "combination Emax", 0.872),
    ("Cc1c2c(nn1C)CSCc1cc(n(C)n1)CSc1cc(c3ccccc3c1)OCCCc1c(C(=O)O)n(C)c3c-2c(Cl)ccc13 [AZD5991] + C[C@@H](Nc1cc(F)cc(F)c1)c1cc(C(=O)N(C)C)cc2c(=O)cc(N3CCOCC3)oc12 [AZD8186] (first compound max 1 µM, 7x7, partner max 3 µM)", "combination Emax", 0.279),
]

----------
tested on: MDA-MB-468 (Breast Carcinoma); experiment: Bliss excess, mean over the matrix (fraction); higher = more synergy;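 further: after 72 h of two-drug dosing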
Consider the following compounds and their measured Bliss excess readings.
measurement type: Bliss excess

# compound, measurement type, experimental value
measured = [
    ("N#Cc1cnc(Nc2cc(NC[C@H]3CNCCO3)c(C(F)(F)F)cn2)cn1 [SRA737] + O=c1[nH]cc(F)c(=O)[nH]1 [5-Fluorouracil] (first compound max 10 µM, 7x7, partner max 20 µM)", "Bliss excess", -0.0199),
    ("CN(C)CCCOc1ccc(-c2ccc3ncc4c(c3c2)n(C2CCOCC2)c(=O)n4C)cn1 [AZD0156] + C=CCn1c(=O)c2cnc(Nc3ccc(N4CCN(C)CC4)cc3)nc2n1-c1cccc(C(C)(C)O)n1 [AZD1775] (first compound max 1 µM, partner max 1 µM)", "Bliss excess", -0.0449),
    ("CN(CCO)CC[C@H](CSc1ccccc1)Nc1ccc(S(=O)(=O)NC(=O)c2ccc(N3CCC([C@@H](O)c4ccccc4-c4ccc(Cl)cc4)CC3)cc2)cc1S(=O)(=O)C(F)(F)F [AZD4320] + CN(C)CCCOc1ccc(-c2ccc3ncc4c(c3c2)n(C2CCOCC2)c(=O)n4C)cn1 [AZD0156] (first compound max 1 µM, 7x7, partner max 1 µM)", "Bliss excess", -0.127),
    ("Cc1cc2ncnn2cc1Nc1ncc2c(n1)n(C1CCOCC1)c(=O)n2C [AZD7648] + C[C@@H]1COCCN1C2=NC(=NC(=C2)C3(CC3)[S@](=N)(=O)C)C4=C5C=CNC5=NC=C4 [AZD6738] (first compound max 10 µM, 7x7, partner max 10 µM)", "Bliss excess", -0.0063),
    ("CCc1c2c(nc3ccc(O)cc13)-c1cc3c(c(=O)n1C2)COC(=O)[C@]3(O)CC [SN-38] + O=C(c1cc(Cc2n[nH]c(=O)c3ccccc23)ccc1F)N1CCN(C(=O)C2CC2)CC1 [Olaparib] (first compound max 0.3 µM, 7x7, partner max 10 µM)", "Bliss excess", 0.0941),
    ("Cc1cc2ncnn2cc1Nc1ncc2c(n1)n(C1CCOCC1)c(=O)n2C [AZD7648] + COc1cc([C@@H]2c3cc4c(cc3[C@@H](O[C@@H]3O[C@@H]5CO[C@@H](C)O[C@H]5[C@H](O)[C@H]3O)[C@H]3COC(=O)[C@H]23)OCO4)cc(OC)c1O [Etoposide] (first compound max 10 µM, 7x7, partner max 10 µM)", "Bliss excess", 0.0376),
    ("Cc1cc2ncnn2cc1Nc1ncc2c(n1)n(C1CCOCC1)c(=O)n2C [AZD7648] + CN(C)CCCOc1ccc(-c2ccc3ncc4c(c3c2)n(C2CCOCC2)c(=O)n4C)cn1 [AZD0156] (first compound max 10 µM, 7x7, partner max 1 µM)", "Bliss excess", 0.0032),
]
